biological target: LINE1 reverse transcriptase (Homo sapiens, UniProt O00370); construct: expressed in transfected cells; host or cells: HeLa Tet-On 3G (Takara, cat no 631183); test: Stable artificial-intron Cis LINE1 reporter assay (HeLa Tet-On 3G, Firefly luciferase); format: cell-based; details: HeLa L1 artificial-intron reporter cells, doxycycline 500 ng/mL, 72 h, class symbols
Sequence (O00370 whole entry, looked up): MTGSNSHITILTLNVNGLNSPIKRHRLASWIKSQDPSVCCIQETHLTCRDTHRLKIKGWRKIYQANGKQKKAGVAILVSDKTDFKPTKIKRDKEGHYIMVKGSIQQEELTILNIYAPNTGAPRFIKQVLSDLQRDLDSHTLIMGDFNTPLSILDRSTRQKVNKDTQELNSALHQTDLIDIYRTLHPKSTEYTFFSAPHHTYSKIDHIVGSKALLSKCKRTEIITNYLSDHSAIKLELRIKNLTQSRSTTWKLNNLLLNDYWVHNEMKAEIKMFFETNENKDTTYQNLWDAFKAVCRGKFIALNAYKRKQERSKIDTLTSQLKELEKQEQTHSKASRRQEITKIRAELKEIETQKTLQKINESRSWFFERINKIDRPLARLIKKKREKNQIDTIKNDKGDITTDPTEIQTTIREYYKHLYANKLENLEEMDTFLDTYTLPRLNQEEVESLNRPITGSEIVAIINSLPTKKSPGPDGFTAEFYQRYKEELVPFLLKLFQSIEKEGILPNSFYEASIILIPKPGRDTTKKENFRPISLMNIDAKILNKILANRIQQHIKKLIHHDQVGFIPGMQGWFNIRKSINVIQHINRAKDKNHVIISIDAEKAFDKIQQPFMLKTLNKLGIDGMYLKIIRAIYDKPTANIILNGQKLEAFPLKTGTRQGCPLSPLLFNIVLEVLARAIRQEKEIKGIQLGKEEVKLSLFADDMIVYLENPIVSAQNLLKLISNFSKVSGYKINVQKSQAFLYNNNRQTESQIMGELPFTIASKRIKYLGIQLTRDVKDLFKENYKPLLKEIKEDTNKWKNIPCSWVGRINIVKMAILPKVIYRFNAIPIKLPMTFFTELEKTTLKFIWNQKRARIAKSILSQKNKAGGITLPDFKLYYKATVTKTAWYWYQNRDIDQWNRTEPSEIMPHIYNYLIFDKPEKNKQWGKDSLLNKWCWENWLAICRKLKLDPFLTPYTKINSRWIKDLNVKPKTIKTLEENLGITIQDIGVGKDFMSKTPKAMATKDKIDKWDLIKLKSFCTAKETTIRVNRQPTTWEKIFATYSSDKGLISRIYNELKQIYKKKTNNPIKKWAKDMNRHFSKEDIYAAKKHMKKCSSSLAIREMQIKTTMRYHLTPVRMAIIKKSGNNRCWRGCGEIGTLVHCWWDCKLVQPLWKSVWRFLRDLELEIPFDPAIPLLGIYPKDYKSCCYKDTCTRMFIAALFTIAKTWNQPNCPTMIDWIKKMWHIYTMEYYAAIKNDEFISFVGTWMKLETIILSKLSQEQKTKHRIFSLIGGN
READOUT NAME: IC50

Nc1ccn([C@H]2C[C@H](O)[C@](CO)(CF)O2)c(=O)n1 [Compound 45] = 50 to 100 nM

Which measured IC50 value corresponds to Nc1nc(=O)n([C@@H]2O[C@](/C=C\F)(CO)[C@@H](O)[C@@H]2F)cc1F [Compound 123] ?
50 to 100 nM

====

molecular target: LINE1 reverse transcriptase (Homo sapiens); construct: expressed in transfected cells; host or cells: HeLa Tet-On 3G (Takara, cat no 631183); test: Stable artificial-intron Cis LINE1 reporter assay (HeLa Tet-On 3G, Firefly luciferase); type: cell-based; conditions: HeLa L1 artificial-intron reporter cells, doxycycline 500 ng/mL, 72 h, class symbols
READOUT NAME: IC50

Study these solved cases before continuing.
[N-]=[N+]=N[C@]1(CO)O[C@@H](n2ccc(N)nc2=O)C[C@@H]1O = 50 to 100 nM
Nc1ccn([C@@H]2O[C@@](CO)(CCl)[C@@H](O)[C@@H]2O)c(=O)n1 = 100 to 250 nM
CC[C@]1(COC(=O)C(C)C)O[C@@H](n2ccc(N)nc2=O)C[C@@H]1OC(=O)C(C)C = 100 to 250 nM
Nc1nc(=O)n([C@@H]2O[C@@](CO)(C3CC3)[C@@H](O)[C@@H]2F)cc1F = 250 to 1000 nM

Switching to the query record.
Which measured IC50 value corresponds to C[C@@H]1[C@H](n2ccc(N)nc2=O)O[C@@](CO)(CCl)[C@H]1O ?
250 to 1000 nM

====

biological target: LINE1 reverse transcriptase (Homo sapiens); construct: expressed in transfected cells; host or cells: HeLa Tet-On 3G (Takara, cat no 631183); assay: Stable artificial-intron Cis LINE1 reporter assay (HeLa Tet-On 3G, Firefly luciferase); type: cell-based; settings: HeLa L1 artificial-intron reporter cells, doxycycline 500 ng/mL, 72 h, class symbols
pIC50: −log10 of the molar value.
READOUT NAME: pIC50

Study these solved cases before continuing.
CC[C@]1(CO)O[C@@H](n2cc(F)c(N)nc2=O)[C@@H](F)[C@@H]1O = ≥ 7.30
Nc1nc(=O)n([C@H]2C[C@H](O)[C@](CO)(C3CC3)O2)cc1F = 6.00 to 6.60

Which measured pIC50 value corresponds to C=C[C@]1(CO)O[C@@H](n2cnc3c(=O)[nH]c(N)nc32)[C@@H](F)[C@@H]1O ?
6.00 to 6.60

These data points were gathered from patent US20230295212A1.
